Biological target: AGO2 WT (phosphosite mutant background) (Homo sapiens, UniProt Q9UKV8 1-859, S387D;S824A;S828D;S831D;S834A)
Sequence (Q9UKV8 whole entry S387D/S824A/S828D/S831D/S834A): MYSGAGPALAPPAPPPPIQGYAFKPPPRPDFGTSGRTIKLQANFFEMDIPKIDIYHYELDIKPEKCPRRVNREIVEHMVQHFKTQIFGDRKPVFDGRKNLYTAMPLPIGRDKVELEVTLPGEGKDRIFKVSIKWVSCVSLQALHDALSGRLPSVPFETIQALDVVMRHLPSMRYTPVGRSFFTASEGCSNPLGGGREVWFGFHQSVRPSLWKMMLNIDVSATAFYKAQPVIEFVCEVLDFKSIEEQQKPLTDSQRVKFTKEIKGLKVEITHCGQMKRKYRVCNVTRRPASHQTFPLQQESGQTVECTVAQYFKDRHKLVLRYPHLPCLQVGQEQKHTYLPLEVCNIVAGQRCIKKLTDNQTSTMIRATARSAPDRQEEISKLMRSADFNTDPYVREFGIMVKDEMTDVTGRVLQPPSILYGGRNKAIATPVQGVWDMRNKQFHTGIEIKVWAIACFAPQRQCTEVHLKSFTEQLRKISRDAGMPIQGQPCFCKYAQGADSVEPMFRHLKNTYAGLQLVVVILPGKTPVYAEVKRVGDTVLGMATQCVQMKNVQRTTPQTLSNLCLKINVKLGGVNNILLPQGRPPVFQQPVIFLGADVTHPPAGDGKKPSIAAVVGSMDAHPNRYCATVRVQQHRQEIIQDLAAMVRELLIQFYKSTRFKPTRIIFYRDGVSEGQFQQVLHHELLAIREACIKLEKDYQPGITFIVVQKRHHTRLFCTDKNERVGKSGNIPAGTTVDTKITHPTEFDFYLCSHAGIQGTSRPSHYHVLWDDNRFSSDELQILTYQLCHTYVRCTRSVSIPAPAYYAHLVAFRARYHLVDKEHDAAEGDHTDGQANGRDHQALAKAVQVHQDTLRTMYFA
Test: RNA Bind-n-Seq (nitrocellulose filter binding and sequencing); miR-122 guide loaded in AGO2; 60 min incubation; 30 mM Tris pH 8.0, 100 mM potassium acetate, 2 mM magnesium acetate, 0.5 mM TCEP, 0.005% NP-40, 0.01 mg/ml yeast tRNA; 3 nM AGO2-miR-122, 100 nM RNA library; 60; high values mean tight binding
Settings: protein: recombinant; tags: His6 (N-terminal, pFastBac HTA)
QUANTITY KIND: binding signal

>  <BINDER>
GCGCTCCG (ssRNA, constant regions annealed to DNA blockers; guide miR-122 5' phosphate) RNA 1: GAGUUCUACAGUCCGACGAUCCCAACGCGCUCCGCACCUGGAAUUCUCGGGUGCCAA RNA 2: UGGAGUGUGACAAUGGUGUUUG DNA 1: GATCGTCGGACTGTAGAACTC DNA 2: TTGGCACCCGAGAATTCCA

>  <READOUT VALUE>
1.39 fold enrichment over input

$$$$
>  <BINDER>
ACGCCCCA (ssRNA, constant regions annealed to DNA blockers; guide miR-122 5' phosphate) RNA 1: GAGUUCUACAGUCCGACGAUCCCAACACGCCCCACACCUGGAAUUCUCGGGUGCCAA RNA 2: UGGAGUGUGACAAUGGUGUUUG DNA 1: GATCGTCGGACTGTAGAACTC DNA 2: TTGGCACCCGAGAATTCCA

>  <READOUT VALUE>
0.123 fold enrichment over input

$$$$
>  <BINDER>
ATGTTTCA (ssRNA, constant regions annealed to DNA blockers; guide miR-122 5' phosphate) RNA 1: GAGUUCUACAGUCCGACGAUCCCAACAUGUUUCACACCUGGAAUUCUCGGGUGCCAA RNA 2: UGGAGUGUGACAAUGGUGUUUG DNA 1: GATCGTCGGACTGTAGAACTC DNA 2: TTGGCACCCGAGAATTCCA

>  <READOUT VALUE>
0.125 fold enrichment over input

$$$$
>  <BINDER>
ATGTTTTA (ssRNA, constant regions annealed to DNA blockers; guide miR-122 5' phosphate) RNA 1: GAGUUCUACAGUCCGACGAUCCCAACAUGUUUUACACCUGGAAUUCUCGGGUGCCAA RNA 2: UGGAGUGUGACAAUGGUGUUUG DNA 1: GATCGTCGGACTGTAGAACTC DNA 2: TTGGCACCCGAGAATTCCA

>  <READOUT VALUE>
0.12 fold enrichment over input

$$$$
